test.summary: Cytotoxicity against human U937 cells assessed as reduction of cell viability after 24 hrs by MTT assay
Type: cell-based, U-937
Quick reference for CC50 at 24 h among some compounds
property.label: CC50 at 24 h (µM)

>>> df
                                    compound  property_label  val
 0  Clc1ccc(OC(CCn2ccnc2)c2ccccc2)c(Cl)c1 (racemic)    CC50 at 24 h  166
 1  Clc1ccc(COC(Cn2ccnc2)c2ccc(Cl)cc2Cl)cc1 (configuration not stated)    CC50 at 24 h  108
 2  Cc1ccc(OC(CCCn2ccnc2)c2ccc(Cl)cc2)cc1 (configuration not stated)    CC50 at 24 h  350
 3        OC(Cn1cncn1)(Cn1cncn1)c1ccc(F)cc1F    CC50 at 24 h  328
 4  Clc1ccc(OC(CCn2ccnc2)c2ccc(Cl)cc2)cc1 (configuration not stated)    CC50 at 24 h  327
 5  CC(C)c1ccc(OC(CCn2ccnc2)c2ccc(Cl)cc2)cc1 (configuration not stated)    CC50 at 24 h  208
 6  Cc1ccc(OC(Cn2ccnc2)c2ccc(Cl)cc2)cc1 (configuration not stated)    CC50 at 24 h  150
 7  Clc1ccc(C(CCn2ccnc2)Oc2ccccc2)cc1 (configuration not stated)    CC50 at 24 h  248
 8  Cc1ccc(C(CCn2ccnc2)Oc2ccc(Cl)cc2Cl)cc1 (configuration not stated)    CC50 at 24 h  150
 9  c1ccc(OC(CCn2ccnc2)c2ccccc2)cc1 (configuration not stated)    CC50 at 24 h  201
10  Cc1ccc(OC(CCn2ccnc2)c2ccccc2)cc1 (racemic)    CC50 at 24 h  141
11  CCc1ccc(OC(CCn2ccnc2)c2ccc(C)cc2)cc1 (configuration not stated)    CC50 at 24 h  152

----------
Tested on: Arthrodermataceae
test.summary: Antifungal activity against dermatophytes at 28 degC after 7 days by broth microdilution test
Type: functional
experimental.setup: 168 h
Quick reference for MIC among some compounds
property.label: MIC (µg/mL)

In [3]: df
Out[3]:
                                    compound   val
 0  Cc1ccc(OC(CCn2ccnc2)c2ccc(Cl)cc2)cc1 (stereo unspecified)   4.6
 1  Cc1ccc(C(CCn2ccnc2)Oc2ccc(Cl)cc2)cc1 (stereo unspecified)   3.8
 2  CC(=O)N1CCN(c2ccc(OCC3COC(Cn4ccnc4)(c4ccc(Cl)cc4Cl)O3)cc2)CC1 (stereo unspecified)   1.6
 3  Clc1ccc(OC(CCn2ccnc2)c2ccccc2)cc1 (stereo unspecified)  18.4
 4  Cc1ccc(OC(CCn2ccnc2)c2ccc(Cl)cc2)c(C)c1 (stereo unspecified)  32.5
 5  Cc1ccc(C(CCn2cncn2)Oc2ccc(Cl)cc2Cl)cc1 (stereo unspecified)  17.6
 6  Clc1cccc(Cl)c1OC(CCn1ccnc1)c1ccccc1 (stereo unspecified)   7.6
 7  CC(C)(C)c1ccc(OC(CCn2ccnc2)c2ccc(Cl)cc2)cc1 (stereo unspecified)   9.2
 8  Clc1ccc(C(CCn2ccnc2)OCc2ccc(Cl)cc2Cl)cc1 (stereo unspecified)     7
 9  Fc1ccc(C(CCn2ccnc2)Oc2cc(Cl)cc(Cl)c2)cc1 (stereo unspecified)  16.2
10  Clc1ccc(C(CCn2ccnc2)Oc2cc(Cl)cc(Cl)c2)cc1 (stereo unspecified)     5
11  Cc1ccc(OC(CCn2ccnc2)c2ccccc2)cc1 (racemic)  17.2
12  Clc1ccc(OC(CCn2ccnc2)c2ccccc2)c(Cl)c1 (racemic)   9.2
13  CNCCC(Oc1ccc(C(F)(F)F)cc1)c1ccccc1 (stereo unspecified)    45
14  Fc1ccc(C(CCn2ccnc2)Oc2c(Cl)cccc2Cl)cc1 (stereo unspecified)   6.4
15  Clc1ccc(COC(Cn2ccnc2)c2ccc(Cl)cc2Cl)c(Cl)c1 (stereo unspecified)   0.9

----------
Quick reference for MIC90 among some compounds
System: Candida albicans
test.summary: Antifungal activity against Candida albicans ATCC 10261 at 35 degC after 48 hrs by broth microdilution test
Format: functional
experimental.setup: Candida albicans, ATCC 10261, 48 h; read-out: MIC90
property.label: MIC90

                                   compound          val
0  Clc1ccc(C(OCCn2ccnc2)c2ccc(Cl)cc2Cl)c(Cl)c1  > 128 µg/mL
1  C[C@@H](c1ncncc1F)[C@](O)(Cn1cncn1)c1ccc(F)cc1F [VORICONAZOLE]    > 1 µg/mL
2  Cc1ccc(C(CCn2cncn2)Oc2ccc(Cl)cc2Cl)cc1 (stereo not drawn)  > 128 µg/mL

----------
Test system: Arthrodermataceae
test.summary: Antifungal activity against dermatophytes at 28 degC after 5 days by broth microdilution test
property.label: MFC90 (µg/mL)

>>> print(df.to_string())
                                   compound       assay_system  measure_unit  val
0  Clc1ccc(C(CCn2ccnc2)Oc2ccc(Cl)cc2Cl)cc1 (stereo not given)  Arthrodermataceae         µg/mL   16
1  Fc1ccc(C(CCn2ccnc2)Oc2ccc(Cl)cc2Cl)cc1 (stereo not given)  Arthrodermataceae         µg/mL   64
2  Cc1ccc(C(CCn2ccnc2)Oc2ccc(C(C)(C)C)cc2)cc1 (stereo not given)  Arthrodermataceae         µg/mL   16
3  Clc1cccc(Cl)c1OC(CCn1ccnc1)c1ccccc1 (stereo not given)  Arthrodermataceae         µg/mL   32
4  Cc1ccc(OC(CCn2ccnc2)c2ccc(F)cc2)cc1 (stereo not given)  Arthrodermataceae         µg/mL   16
5  Clc1ccc(COC(Cn2ccnc2)c2ccc(Cl)cc2Cl)c(Cl)c1 (stereo not given) [MICONAZOLE]  Arthrodermataceae         µg/mL    4
6  Cc1ccc(OC(CCn2ccnc2)c2ccc(C)cc2)cc1 (stereo not given)  Arthrodermataceae         µg/mL   32
7  Clc1ccc(C(CCn2ccnc2)OCc2ccc(Cl)cc2Cl)cc1 (stereo not given)  Arthrodermataceae         µg/mL   16
8  Clc1cc(Cl)cc(OC(CCn2ccnc2)c2ccccc2)c1 (stereo not given)  Arthrodermataceae         µg/mL   16
9  Clc1ccc(C(OCCn2ccnc2)c2ccccc2)c(Cl)c1.O=[N+]([O-])O (stereo not given)  Arthrodermataceae         µg/mL    8

----------
Test system: Candida albicans
test.summary: Antifungal activity against fluconazole-resistant Candida albicans isolated from oropharyngeal or vaginal disease patient after 48 hrs by broth microdilution test
Assay type: functional
Param label: returns T when MIC < 6 µg/mL, returns F otherwise, including exact equality.

>>> print(df.to_string())
                                   compound  assigned_category
0  Clc1ccc(OC(CCn2ccnc2)c2ccccc2)cc1 (stereo unspecified)                  F
1  C[C@@H](c1ncncc1F)[C@](O)(Cn1cncn1)c1ccc(F)cc1F                  F
2  Cc1ccc(C(CCn2ccnc2)Oc2ccc(Cl)cc2)cc1 (stereo unspecified)                  T
3  Fc1ccc(C(CCn2ccnc2)Oc2ccc(Cl)cc2Cl)cc1 (stereo unspecified)                  T
4  Clc1ccc(C(CCn2ccnc2)Oc2c(Cl)cccc2Cl)cc1 (stereo unspecified)                  F
5  CC(=O)N1CCN(c2ccc(OCC3COC(Cn4ccnc4)(c4ccc(Cl)cc4Cl)O3)cc2)CC1 (stereo unspecified)                  F
